Biological target: T1, human high affinity trimeric IL-2 receptor (CD25/CD122/CD132) (human, UniProt P01589 22-272; P14784 27-551; P31785 23-369)
T1 sequence 1: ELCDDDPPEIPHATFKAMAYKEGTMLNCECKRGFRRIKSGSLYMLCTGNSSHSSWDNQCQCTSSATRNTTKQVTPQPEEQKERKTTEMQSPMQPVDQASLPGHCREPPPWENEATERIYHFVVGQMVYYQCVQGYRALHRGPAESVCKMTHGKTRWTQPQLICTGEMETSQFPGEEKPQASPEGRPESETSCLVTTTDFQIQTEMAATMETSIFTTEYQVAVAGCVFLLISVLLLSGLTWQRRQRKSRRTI
T1 sequence 2: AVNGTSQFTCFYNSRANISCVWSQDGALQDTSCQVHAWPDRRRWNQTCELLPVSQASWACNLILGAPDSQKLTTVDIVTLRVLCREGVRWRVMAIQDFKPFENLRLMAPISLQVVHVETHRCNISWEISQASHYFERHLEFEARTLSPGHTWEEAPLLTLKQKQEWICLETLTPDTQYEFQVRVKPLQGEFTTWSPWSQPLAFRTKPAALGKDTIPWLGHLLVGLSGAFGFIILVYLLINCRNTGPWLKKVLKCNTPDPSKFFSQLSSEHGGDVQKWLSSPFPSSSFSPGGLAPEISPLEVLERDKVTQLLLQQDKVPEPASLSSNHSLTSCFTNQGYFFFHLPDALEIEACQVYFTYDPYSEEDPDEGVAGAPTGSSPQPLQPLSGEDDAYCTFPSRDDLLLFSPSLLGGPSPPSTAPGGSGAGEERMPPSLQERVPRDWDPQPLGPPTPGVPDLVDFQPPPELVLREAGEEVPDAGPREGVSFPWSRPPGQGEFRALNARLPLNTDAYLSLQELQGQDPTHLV
T1 sequence 3: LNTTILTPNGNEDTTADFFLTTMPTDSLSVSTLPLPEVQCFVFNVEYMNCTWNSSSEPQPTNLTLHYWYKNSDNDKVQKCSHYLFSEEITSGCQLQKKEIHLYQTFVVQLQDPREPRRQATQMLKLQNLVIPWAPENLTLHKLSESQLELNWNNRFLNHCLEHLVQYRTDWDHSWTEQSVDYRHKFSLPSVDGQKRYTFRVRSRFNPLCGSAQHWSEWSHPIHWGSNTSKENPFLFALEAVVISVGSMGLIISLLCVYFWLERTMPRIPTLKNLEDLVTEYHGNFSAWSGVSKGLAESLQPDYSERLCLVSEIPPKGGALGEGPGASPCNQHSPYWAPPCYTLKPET
Assay: cell-based or functional assay
Classify by measured pSTAT5 ratio YT CD25/YT, dilution factor 64, lower table: TRUE if it is equal to or exceeds 6, FALSE if it is smaller.

binder	classification
RGH (ligand) cytokine: APTSSSTKKTQLQLEHLRLDLGMILNGINNYKNPKLTRMLTFKFYMPKKATELKHLQCLEEELKPLEEVLNLAQSKNFHLRPRDLISNINVIVLELKGSETTFMCEYADETATIVEFLNRWITFCHSIISTLT	FALSE
RKH (ligand) cytokine: APTSSSTKKTQLQLEHLRLDLKMILNGINNYKNPKLTRMLTFKFYMPKKATELKHLQCLEEELKPLEEVLNLAQSKNFHLRPRDLISNINVIVLELKGSETTFMCEYADETATIVEFLNRWITFCHSIISTLT	TRUE
RWH (ligand) cytokine: APTSSSTKKTQLQLEHLRLDLWMILNGINNYKNPKLTRMLTFKFYMPKKATELKHLQCLEEELKPLEEVLNLAQSKNFHLRPRDLISNINVIVLELKGSETTFMCEYADETATIVEFLNRWITFCHSIISTLT	FALSE
YEH (ligand) cytokine: APTSSSTKKTQLQLEHLYLDLEMILNGINNYKNPKLTRMLTFKFYMPKKATELKHLQCLEEELKPLEEVLNLAQSKNFHLRPRDLISNINVIVLELKGSETTFMCEYADETATIVEFLNRWITFCHSIISTLT	FALSE
hIL2 mutein REH (L18R, Q22E, Q126H) (ligand) APTSSSTKKTQLQLEHLRLDLEMILNGINNYKNPKLTRMLTFKFYMPKKATELKHLQCLEEELKPLEEVLNLAQSKNFHLRPRDLISNINVIVLELKGSETTFMCEYADETATIVEFLNRWITFCHSIISTLT	FALSE
RTH (ligand) cytokine: APTSSSTKKTQLQLEHLRLDLTMILNGINNYKNPKLTRMLTFKFYMPKKATELKHLQCLEEELKPLEEVLNLAQSKNFHLRPRDLISNINVIVLELKGSETTFMCEYADETATIVEFLNRWITFCHSIISTLT	TRUE
RNH (ligand) cytokine: APTSSSTKKTQLQLEHLRLDLNMILNGINNYKNPKLTRMLTFKFYMPKKATELKHLQCLEEELKPLEEVLNLAQSKNFHLRPRDLISNINVIVLELKGSETTFMCEYADETATIVEFLNRWITFCHSIISTLT	TRUE
